Values compiled from ChEMBL document CHEMBL1126066.

System: Rattus norvegicus
assay comment: In vivo inhibition of polyol accumulation in the sciatic nerve of galactosemic rats, activity is expressed as percent inhibition of poloyl accumulation.
Type: functional
Set-up: concentration or dose not given beside the values
Measured Inhibition of individual entries
All answers are understood in %, so give the number only.

>  <molecule>
CN1C(=O)Nc2cc(Cl)c(Cl)cc2C12NC(=O)NC2=O (configuration not stated)

>  <measurement target>
Rattus norvegicus

>  <Inhibition / %>
52.9

$$$$
>  <molecule>
CN1C(=O)Nc2cc(N3CCOCC3)c([N+](=O)[O-])cc2C12NC(=O)NC2=O (configuration not stated)

>  <measurement target>
Rattus norvegicus

>  <Inhibition / %>
10.3

$$$$
>  <molecule>
CN1C(=O)Nc2ccc(OC(=O)/C=C/c3ccccc3)cc2C12NC(=O)NC2=O (configuration not stated)

>  <measurement target>
Rattus norvegicus

>  <Inhibition / %>
29.3

$$$$
>  <molecule>
CN1C(=O)Nc2c(F)cccc2C12NC(=O)NC2=O (configuration not stated)

>  <measurement target>
Rattus norvegicus

>  <Inhibition / %>
29.9

$$$$
>  <molecule>
CN1C(=O)Nc2ccc(Br)cc2C12NC(=O)NC2=O (configuration not stated)

>  <measurement target>
Rattus norvegicus

>  <Inhibition / %>
74.7

$$$$
>  <molecule>
CN1C(=O)N(C)C2(NC(=O)NC2=O)c2ccccc21 (configuration not stated)

>  <measurement target>
Rattus norvegicus

>  <Inhibition / %>
28.4

$$$$
>  <molecule>
CN1C(=O)Nc2c(cc(F)c(F)c2F)C12NC(=O)NC2=O (configuration not stated)

>  <measurement target>
Rattus norvegicus

>  <Inhibition / %>
29.9

$$$$
>  <molecule>
CN1C(=O)Nc2cc3c(cc2C12NC(=O)NC2=O)OCO3 (configuration not stated)

>  <measurement target>
Rattus norvegicus

>  <Inhibition / %>
28.4

$$$$

Task: Inhibition for Cc1ccc2c(c1)NC(=O)N(C)C21NC(=O)NC1=O (configuration not stated) ?
Output: 37.5

Task: Inhibition for `CN1C(=O)Nc2ccccc2[C@@]12NC(=O)NC2=O` ?
Output: 39

Task: Inhibition for `CN1C(=O)Nc2ccc(Cl)cc2[C@]12NC(=O)NC2=O` ?
Output: 26.3

Task: Inhibition for CN1C(=O)Nc2ccc(Cl)cc2C12NC(=O)NC2=O (configuration not stated) ?
Output: 68

Task: Inhibition for COc1cc2c(cc1Cl)C1(NC(=O)NC1=O)N(C)C(=O)N2 (configuration not stated) ?
Output: 24.6

====

Test system: Rattus norvegicus
assay comment: In vivo inhibition of polyol accumulation in the sciatic nerve of galactosemic rats, activity is expressed as percent inhibition of poloyl accumulation.
Type: functional
Design: concentration or dose not given beside the values
Rule: Criterion met for Inhibition not less than 40%, Criterion not met for anything less.

>  <compound>
CN1C(=O)Nc2c(N)cc(Cl)cc2C12NC(=O)NC2=O (stereo unspecified)

>  <discrete label>
Criterion met

$$$$

Task: Is the recorded value of Inhibition equal to or greater than 40% for this compound? CN1C(=O)Nc2ccc([N+](=O)[O-])cc2C12NC(=O)NC2=O (stereo unspecified)
Output: Criterion not met

Task: Is the recorded value of Inhibition equal to or greater than 40% for this compound? CCOC(=O)c1ccc2c(c1)C1(NC(=O)NC1=O)N(C)C(=O)N2 (stereo unspecified)
Output: Criterion not met

Task: Is the recorded value of Inhibition equal to or greater than 40% for this compound? CN1C(=O)Nc2cc(Cl)ccc2C12NC(=O)NC2=O (stereo unspecified)
Output: Criterion not met

Task: Is the recorded value of Inhibition equal to or greater than 40% for this compound? CN1C(=O)Nc2c([N+](=O)[O-])cc([N+](=O)[O-])cc2C12NC(=O)NC2=O (stereo unspecified)
Output: Criterion not met

Task: Is the recorded value of Inhibition equal to or greater than 40% for this compound? O=C1NC(=O)C2(N1)NC(=O)Nc1ccccc12 (stereo unspecified)
Output: Criterion not met
